target: TMEM63B; test: reporter assay of Huesken 2005; details: siRNA; also: test concentration or dose not given here
Oligonucleotides are given in HELM: sugar(base)linkage, 5' to 3'; d 2'-deoxyribose, r ribose, m 2'-O-methylribose, p phosphate. ss, as = sense and antisense strand
Reported normalised inhibition (eCFP-eYFP dual reporter) values for the following substances.
resultType: normalised inhibition (eCFP-eYFP dual reporter) (%)

>>> testresult("RNA1{r(G)p.r(C)p.r(U)p.r(U)p.r(U)p.r(G)p.r(G)p.r(G)p.r(A)p.r(G)p.r(A)p.r(A)p.r(C)p.r(C)p.r(A)p.r(C)p.r(C)p.r(A)p.r(U)p.d(T)p.d(T)}|RNA2{r(A)p.r(U)p.r(G)p.r(G)p.r(U)p.r(G)p.r(G)p.r(U)p.r(U)p.r(C)p.r(U)p.r(C)p.r(C)p.r(C)p.r(A)p.r(A)p.r(A)p.r(G)p.r(C)p.d(T)p.d(G)}$$$RNA1{StrandType:ss}|RNA2{StrandType:as}$")
75.8
>>> testresult("RNA1{r(A)p.r(G)p.r(C)p.r(U)p.r(C)p.r(A)p.r(G)p.r(G)p.r(G)p.r(G)p.r(A)p.r(U)p.r(G)p.r(A)p.r(G)p.r(C)p.r(C)p.r(C)p.r(C)p.d(T)p.d(T)}|RNA2{r(G)p.r(G)p.r(G)p.r(G)p.r(C)p.r(U)p.r(C)p.r(A)p.r(U)p.r(C)p.r(C)p.r(C)p.r(C)p.r(U)p.r(G)p.r(A)p.r(G)p.r(C)p.r(U)p.d(C)p.d(C)}$$$RNA1{StrandType:ss}|RNA2{StrandType:as}$")
43
>>> testresult("RNA1{r(A)p.r(G)p.r(A)p.r(G)p.r(A)p.r(G)p.r(G)p.r(A)p.r(A)p.r(G)p.r(A)p.r(A)p.r(G)p.r(G)p.r(C)p.r(C)p.r(G)p.r(A)p.r(G)p.d(T)p.d(T)}|RNA2{r(C)p.r(U)p.r(C)p.r(G)p.r(G)p.r(C)p.r(C)p.r(U)p.r(U)p.r(C)p.r(U)p.r(U)p.r(C)p.r(C)p.r(U)p.r(C)p.r(U)p.r(C)p.r(U)p.d(G)p.d(C)}$$$RNA1{StrandType:ss}|RNA2{StrandType:as}$")
49.4
